SYSTEM TESTED: Nuclear receptor subfamily 1 group I member 2 (Homo sapiens) (UniProt O75469)
Sequence (O75469 whole entry, looked up): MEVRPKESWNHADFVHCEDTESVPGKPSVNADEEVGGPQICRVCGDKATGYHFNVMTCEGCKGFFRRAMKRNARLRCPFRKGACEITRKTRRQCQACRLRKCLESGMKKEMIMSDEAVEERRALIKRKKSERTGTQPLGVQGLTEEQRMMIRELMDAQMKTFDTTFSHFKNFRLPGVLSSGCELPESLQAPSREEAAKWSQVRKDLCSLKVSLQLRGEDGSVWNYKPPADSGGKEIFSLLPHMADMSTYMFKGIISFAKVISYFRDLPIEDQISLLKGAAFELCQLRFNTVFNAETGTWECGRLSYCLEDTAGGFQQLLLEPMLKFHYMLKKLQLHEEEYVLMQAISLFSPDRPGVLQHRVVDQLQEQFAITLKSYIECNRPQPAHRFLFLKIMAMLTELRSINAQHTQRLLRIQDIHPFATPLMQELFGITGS
PROTOCOL SUMMARY: ATG_PXR_TRANS: Attagene TRANS-FACTORIAL HepG2 Assay for human Pregnane X Receptor (PXR) (AID 2283008)
Method: ATG_TRANS is a cell-based, multiplexed-readout assay that uses HepG2, a human liver cell line, with measurements taken at 24 hours after chemical dosing in a 24-well plate.ATG_PXR_TRANS is one of 30 assay component(s) measured or calculated from the ATG_TRANS assay. […] This assay endpoint, ATG_PXR_TRANS, was analyzed in the positive analysis fitting direction relative to DMSO as the negative control and baseline of activity. […]
Inconclusive results are not listed. Active and inactive are the calls of the source. The calls were made as follows: active = hit-call score of the fitted dose curve at least 0.9, where 1 is the maximum; inconclusive = response in the unintended direction; inactive = score below 0.9.
QUANTITY MEASURED: AC50

As a guide, the following entries are already answered.
COc1cc2c(c(OC)c1OC)-c1ccc(OC)c(=O)cc1[C@@H](NC(C)=O)CC2    inactive
FC(F)(F)C(F)(F)C(F)(F)C(F)(F)C(F)(F)C(F)(F)I    inactive
CCCCC(CC)C(=O)OCCOCCOCCOC(=O)C(CC)CCCC (centres undefined)    27.5 µM (active)
CC(C)c1nnc2ccc(-c3ocnc3-c3cc(F)ccc3F)cn12    inactive
CCc1cccc(CC)c1N    inactive
O=C(NO)C1(NS(=O)(=O)c2ccc(Oc3ccc(F)cc3)cc2)CCOCC1    31.7 µM (active)
CCCOc1ccc(S(=O)(=O)N2CCN(CC)CC2)cc1-c1nc2c(CC)n(Cc3ccccn3)nc2c(=O)[nH]1    1.17 µM (active)
OCc1c[nH]c2ccccc12    1.89 µM (active) [middle of 5 runs]

Asked: Dear colleague, please send me the reported AC50 for Cc1ncc([C@@H](CCCCCCc2ccc3c(n2)NCCC3)CC(=O)O)cn1 when you can.
Given back: inactive

Asked: Dear colleague, please send me the reported AC50 for O=C(O)c1cccc(C[C@@H]2COc3ccc(OCc4nc5cc(F)ccc5s4)cc3[C@@H]2O)c1 when you can.
Given back: inactive

Asked: Dear colleague, please send me the reported AC50 for COc1cc(C(C)C)c2c(c1)S(=O)(=O)N(COc1cc(=O)n3cccc(OCCN4CCCCC4)c3n1)C2=O when you can.
Given back: 0.836 µM (active)

Asked: Dear colleague, please send me the reported AC50 for CCCCCCCCCCCCCCO when you can.
Given back: inactive

Asked: Dear colleague, please send me the reported AC50 for c1ccc2cc3ccccc3cc2c1 when you can.
Given back: inactive

Asked: Dear colleague, please send me the reported AC50 for CCCC(CCC)C(=O)O when you can.
Given back: inactive

Asked: Dear colleague, please send me the reported AC50 for CCCCCCCCCCCCCCCCOS(=O)(=O)O when you can.
Given back: inactive
